Numbers sourced from patent US9051591B2.

assayed_target: purified ADH (Polaromonas sp.) (Polaromonas sp.)
Sequence (Q126F5 whole entry): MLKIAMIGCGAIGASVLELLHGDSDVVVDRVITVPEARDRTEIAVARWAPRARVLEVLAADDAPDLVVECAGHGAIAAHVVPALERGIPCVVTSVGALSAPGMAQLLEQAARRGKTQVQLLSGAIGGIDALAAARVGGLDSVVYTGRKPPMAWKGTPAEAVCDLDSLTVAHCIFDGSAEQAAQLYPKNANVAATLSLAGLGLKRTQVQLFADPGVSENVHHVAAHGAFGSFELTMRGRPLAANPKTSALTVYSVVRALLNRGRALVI
assay_text: Screening of alternative substrates for purified ADH
applied_conditions: 10 mM, […] NADH, 50 mM NH4Cl, 29° C.
metric_name: ability to replace oxaloacetate in forward reaction

compound="CCC(C)C(=O)C(=O)O (stereo not shown) [ketomethylvaleriate]" assay_value="No activity"
compound="CC(C)C(=O)C(=O)O [ketoisovaleriate]" assay_value="No activity"
compound="CCC(=O)C(=O)O [α-ketobutyrate]" assay_value="No activity"
compound="CC(=O)C(=O)O [pyruvate]" assay_value="No activity"

----------
assayed_target: purified ADH (Polaromonas sp.) (Polaromonas sp.)
assay_text: Screening of alternative substrates for purified ADH
applied_conditions: 10 mM, 1 mM NAD^+, 29° C.
metric_name: ability to replace aspartic acid in reverse reaction

molecule="N[C@@H](CCC(=O)O)C(=O)O [Glutamate]" assayed_target="purified ADH (Polaromonas sp.) (Polaromonas sp.)" assay_value="No activity"
molecule="CCC(N)C(=O)O (stereo not drawn) [α-aminobutyrate]" assayed_target="purified ADH (Polaromonas sp.) (Polaromonas sp.)" assay_value="No activity"
molecule="CC(C)[C@H](N)C(=O)O [valine]" assayed_target="purified ADH (Polaromonas sp.) (Polaromonas sp.)" assay_value="No activity"
molecule="C[C@H](N)C(=O)O [Alanine]" assayed_target="purified ADH (Polaromonas sp.) (Polaromonas sp.)" assay_value="No activity"
molecule="NC(=O)C[C@H](N)C(=O)O [asparagine]" assayed_target="purified ADH (Polaromonas sp.) (Polaromonas sp.)" assay_value="No activity"

What measured ability to replace aspartic acid in reverse reaction is associated with CC[C@H](C)[C@H](N)C(=O)O [isoleucine] on purified ADH (Polaromonas sp.) (Polaromonas sp.)?
No activity
